pIC50: −log10 of the molar value.
Target or system Homeodomain-interacting protein kinase 1 (Homo sapiens): recorded pIC50 listed per item.
measurementLabel: pIC50

>>> print(df.to_string())
                               samplesmiles  measurementlabel  value
0  COc1cccc(-c2nc3sccn3c2-c2ccnc(NCCCNS(=O)(=O)c3cccc(F)c3)n2)c1             pIC50   5.42
1  CN1CCN(CCNc2nccc(-c3c(-c4cccc(O)c4)nc4sccn34)n2)S1(=O)=O             pIC50   5.42

* * *

Target or system RAF proto-oncogene serine/threonine-protein kinase (Homo sapiens): recorded IC50 listed per item.
measurementLabel: IC50 (nM)

                               samplesmiles  unitabbrev  value
0  O=S(=O)(NCCNc1nccc(-c2c(-c3cccc(O)c3)nc3sccn23)n1)c1ccc(F)cc1          nM      6
1  COc1ccc(-c2nc3sccn3c2-c2ccnc(NCCNS(=O)(=O)c3ccc(F)cc3)n2)cc1          nM  32200
2  COc1ccc(-c2nc3sccn3c2-c2ccnc(NCCNS(=O)(=O)c3ccc(C)cc3)n2)cc1          nM  21300
3  O=S(=O)(NCCNc1nccc(-c2c(-c3cccc(O)c3)nc3sccn23)n1)c1ccccc1          nM     21
4  O=S(=O)(NCCCNc1nccc(-c2c(-c3ccccc3)nc3sccn23)n1)c1ccc(F)cc1          nM   87.8

* * *

# Test system: Panel colon (Carcinoma cell lines)
# assayComment: Antiproliferative activity against human Panel colon (Carcinoma cell lines) assessed as cell growth inhibition measured after 48 hrs by SRB assay
pIC50: −log10 of the molar value.
We begin with a simple list: items and their reported pIC50.
measurementLabel: pIC50

In [3]: df
Out[3]:
                               samplesmiles  measurementlabel  value
0  O=S(=O)(NCCCNc1nccc(-c2c(-c3cccc(O)c3)nc3sccn23)n1)c1cccc(F)c1             pIC50   5.52
1  COc1ccc(S(=O)(=O)NCCNc2nccc(-c3c(-c4ccccc4)nc4sccn34)n2)cc1             pIC50   5.66
2  CN1CCCN(CCNc2nccc(-c3c(-c4cccc(O)c4)nc4sccn34)n2)S1(=O)=O             pIC50   5.09

* * *

We begin with a simple list: items and their reported pIC50.
# targetEntity: Mitogen-activated protein kinase 8 (Homo sapiens, UniProt P45983)
# Sequence (P45983 whole entry): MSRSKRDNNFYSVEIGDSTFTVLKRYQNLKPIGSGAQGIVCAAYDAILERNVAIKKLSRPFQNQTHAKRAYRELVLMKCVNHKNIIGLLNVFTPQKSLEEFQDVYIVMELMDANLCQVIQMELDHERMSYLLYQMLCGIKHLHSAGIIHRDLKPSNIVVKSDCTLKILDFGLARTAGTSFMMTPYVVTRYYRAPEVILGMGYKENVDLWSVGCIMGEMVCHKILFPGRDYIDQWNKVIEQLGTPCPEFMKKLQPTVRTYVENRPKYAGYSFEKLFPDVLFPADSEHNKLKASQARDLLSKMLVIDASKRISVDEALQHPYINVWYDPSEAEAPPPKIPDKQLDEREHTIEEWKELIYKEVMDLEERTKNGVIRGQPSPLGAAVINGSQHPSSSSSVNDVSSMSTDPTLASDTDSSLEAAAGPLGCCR
# assayComment: Inhibition of MAPK8 (unknown origin) incubated for 1 hr by qPCR analysis
pIC50: −log10 of the molar value.
measurementLabel: pIC50

In [3]: df
Out[3]:
                               samplesmiles  measurementlabel  value
0  COc1cccc(-c2nc3sccn3c2-c2ccnc(NCCCNS(=O)(=O)c3cccc(F)c3)n2)c1             pIC50   6.44
1  O=S(=O)(NCCCNc1nccc(-c2c(-c3cccc(O)c3)nc3sccn23)n1)c1cccc(F)c1             pIC50   5.73
2  CN1CCN(CCNc2nccc(-c3c(-c4cccc(O)c4)nc4sccn34)n2)S1(=O)=O             pIC50   6.04
3  COc1cccc(-c2nc3sccn3c2-c2ccnc(NCCNS(=O)(=O)c3ccc(C(F)(F)F)cc3)n2)c1             pIC50   6.38
4  O=S(=O)(NCCNc1nccc(-c2c(-c3cccc(O)c3)nc3sccn23)n1)c1ccc(F)cc1             pIC50   5.87

* * *

We begin with a simple list: items and their reported IC50 at 48 h.
# assayComment: Cytotoxicity against human L132 cells assessed as cell growth inhibition incubated for 48 hrs by MTT assay
# Format: toxicity, cell-based
measurementLabel: IC50 at 48 h (µM)

In [3]: df
Out[3]:
                               samplesmiles  value
0  COc1ccc(-c2nc3sccn3c2-c2ccnc(NCCNS(=O)(=O)c3ccc(C)cc3)n2)cc1    466
1  O=S(=O)(NCCCNc1nccc(-c2c(-c3cccc(O)c3)nc3sccn23)n1)c1cccc(F)c1   56.3
2  COc1ccc(S(=O)(=O)NCCNc2nccc(-c3c(-c4ccccc4)nc4sccn34)n2)cc1   60.2
3  CN1CCCN(CCNc2nccc(-c3c(-c4cccc(O)c4)nc4sccn34)n2)S1(=O)=O   93.6

* * *

# assayComment: Half life in Sprague-Dawley rat at 5 mg/kg, iv by LC-MS/MS analysis
# Assay type: ADME, organism-based
# measurementConditions: in vivo
measurementLabel: half-life (h)

>>> print(df.to_string())
                               samplesmiles  value
0  CN1CCN(CCNc2nccc(-c3c(-c4cccc(O)c4)nc4sccn34)n2)S1(=O)=O   1.72

* * *

# assayComment: Oral bioavailability in Sprague-Dawley rat at 5 mg/kg by LC-MS/MS analysis
# Format: ADME, organism-based
# measurementConditions: in vivo
measurementLabel: bioavailability (%)

>>> print(df.to_string())
                               samplesmiles  measurementlabel  value
0  CN1CCN(CCNc2nccc(-c3c(-c4cccc(O)c4)nc4sccn34)n2)S1(=O)=O   bioavailability   6.59

* * *

We begin with a simple list: items and their reported IC50 at 48 h.
# assayComment: Cytotoxicity against human BJ cells assessed as cell growth inhibition incubated for 48 hrs by MTT assay
# Assay type: toxicity, cell-based
measurementLabel: IC50 at 48 h (µM)

>>> print(df.to_string())
                               samplesmiles  unitabbrev  value
0  COc1ccc(S(=O)(=O)NCCNc2nccc(-c3c(-c4ccccc4)nc4sccn34)n2)cc1          µM   55.6
1  CN1CCCN(CCNc2nccc(-c3c(-c4cccc(O)c4)nc4sccn34)n2)S1(=O)=O          µM   75.6
2  COc1ccc(-c2nc3sccn3c2-c2ccnc(NCCNS(=O)(=O)c3ccc(C)cc3)n2)cc1          µM    126
3  O=S(=O)(NCCCNc1nccc(-c2c(-c3cccc(O)c3)nc3sccn23)n1)c1cccc(F)c1          µM   45.2

* * *

# assayComment: Tmax in Sprague-Dawley rat at 5 mg/kg, po by LC-MS/MS analysis
# Type: ADME, organism-based
# measurementConditions: in vivo
measurementLabel: Tmax (h)

>>> print(df.to_string())
                               samplesmiles  measurementlabel  value
0  CN1CCN(CCNc2nccc(-c3c(-c4cccc(O)c4)nc4sccn34)n2)S1(=O)=O              Tmax   2.08

* * *

# targetEntity: Serine/threonine-protein kinase B-raf (Homo sapiens, UniProt P15056, V600E)
# Sequence (P15056 2-766 V600E limits assumed): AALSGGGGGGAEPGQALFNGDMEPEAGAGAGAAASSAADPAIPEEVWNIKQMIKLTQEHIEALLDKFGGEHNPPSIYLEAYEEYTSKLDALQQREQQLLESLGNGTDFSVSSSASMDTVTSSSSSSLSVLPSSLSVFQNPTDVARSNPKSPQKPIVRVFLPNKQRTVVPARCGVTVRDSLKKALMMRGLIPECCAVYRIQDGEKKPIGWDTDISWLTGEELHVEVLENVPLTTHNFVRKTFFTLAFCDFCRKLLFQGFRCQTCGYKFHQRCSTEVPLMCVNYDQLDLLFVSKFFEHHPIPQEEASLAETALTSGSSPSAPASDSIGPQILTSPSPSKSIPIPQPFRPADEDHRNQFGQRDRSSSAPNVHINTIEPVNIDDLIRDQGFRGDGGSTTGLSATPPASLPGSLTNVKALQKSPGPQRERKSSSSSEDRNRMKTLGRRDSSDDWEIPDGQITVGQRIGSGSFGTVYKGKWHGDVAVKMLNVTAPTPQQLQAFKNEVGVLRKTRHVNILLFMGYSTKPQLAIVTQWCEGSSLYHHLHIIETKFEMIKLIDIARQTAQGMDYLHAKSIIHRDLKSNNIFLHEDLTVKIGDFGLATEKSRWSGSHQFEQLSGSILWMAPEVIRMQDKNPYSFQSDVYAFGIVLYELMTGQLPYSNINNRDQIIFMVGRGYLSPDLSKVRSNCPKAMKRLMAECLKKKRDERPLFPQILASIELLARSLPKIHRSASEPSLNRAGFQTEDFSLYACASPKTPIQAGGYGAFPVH
# assayComment: Inhibition of human BRAF V600E mutant using myelin basic protein as substrate in presence of [gamma-33P]ATP incubated for 40 mins by scintillation counting method
pIC50: −log10 of the molar value.
measurementLabel: pIC50

                               samplesmiles                              targetentity  value
0  COc1ccc(S(=O)(=O)NCCCNc2nccc(-c3c(-c4cccc(OC)c4)nc4sccn34)n2)cc1  Serine/threonine-protein kinase B-raf (Homo sapiens, UniProt P15056, V600E)   6.81
1  COc1ccc(S(=O)(=O)NCCNc2nccc(-c3c(-c4cccc(OC)c4)nc4sccn34)n2)cc1  Serine/threonine-protein kinase B-raf (Homo sapiens, UniProt P15056, V600E)   6.80
2  COc1cccc(-c2nc3sccn3c2-c2ccnc(NCCNS(=O)(=O)c3ccccc3)n2)c1  Serine/threonine-protein kinase B-raf (Homo sapiens, UniProt P15056, V600E)   6.92
3  O=S(=O)(NCCNc1nccc(-c2c(-c3ccccc3)nc3sccn23)n1)c1ccc(O)cc1  Serine/threonine-protein kinase B-raf (Homo sapiens, UniProt P15056, V600E)   7.19
4  O=S(=O)(NCCNc1nccc(-c2c(-c3ccccc3)nc3sccn23)n1)c1ccc(F)cc1  Serine/threonine-protein kinase B-raf (Homo sapiens, UniProt P15056, V600E)   7.16

* * *

# targetEntity: Serine/threonine-protein kinase B-raf (Homo sapiens, UniProt P15056, V600E)
# assayComment: Inhibition of human BRAF V600E mutant using myelin basic protein as substrate in presence of [gamma-33P]ATP incubated for 40 mins by scintillation counting method
measurementLabel: IC50 (nM)

>>> print(df.to_string())
                               samplesmiles  measurementlabel  value
0  COc1ccc(S(=O)(=O)NCCCNc2nccc(-c3c(-c4ccccc4)nc4sccn34)n2)cc1              IC50   66.1
1  COc1cccc(-c2nc3sccn3c2-c2ccnc(NCCN3CCCNS3(=O)=O)n2)c1              IC50   9.96
2  COc1cccc(-c2nc3sccn3c2-c2ccnc(NCCNS(=O)(=O)c3ccc(F)cc3)n2)c1              IC50    115
3  COc1cccc(-c2nc3sccn3c2-c2ccnc(NCCCNS(=O)(=O)c3cccc(F)c3)n2)c1              IC50    102
4  COc1cccc(-c2nc3sccn3c2-c2ccnc(NCCCNS(=O)(=O)c3ccc4ccccc4c3)n2)c1              IC50    165
5  COc1ccc(-c2nc3sccn3c2-c2ccnc(NCCNS(=O)(=O)c3ccc(OC)cc3)n2)cc1              IC50  26300
6  O=S1(=O)NCCCN1CCNc1nccc(-c2c(-c3cccc(O)c3)nc3sccn23)n1              IC50   5.21
7  Cc1ccc(S(=O)(=O)NCCCNc2nccc(-c3c(-c4ccccc4)nc4sccn34)n2)cc1              IC50   85.3
8  COc1cccc(-c2nc3sccn3c2-c2ccnc(NCCNS(=O)(=O)c3ccc4ccccc4c3)n2)c1              IC50    169
